- Tested on: IGROV-1
- Method description: Growth inhibition of human IGROV-1 cells measured after 48 hrs by SRB assay
- Assay type: functional
Experimental readout: GI50 (nM)
Your answer should be a plain number; it is taken to be in nM.

Ask | Read the entry C[C@]12CC[C@@H](O)C=C1CC[C@@H]1[C@@H]2[C@@H](O)C[C@]2(C)[C@@H](c3ccc(=O)oc3)CC[C@]12O and write its reported GI50.
Reply | 3690

Ask | Read the entry C[C@]12CC[C@H](O)C=C1CC[C@@H]1[C@@H]2[C@@H](O)C[C@]2(C)[C@@H](c3ccc(=O)oc3)CC[C@]12O and write its reported GI50.
Reply | 1820

// next item, GI50 requested
Ask | Read the entry CCO[C@H]1C=C2CC[C@@H]3[C@H]([C@@H](O)C[C@]4(C)[C@@H](c5ccc(=O)oc5)CC[C@]34O)[C@@]2(C)CC1 and write its reported GI50.
Reply | 1840

---

- Tested on: SK-MEL-5
- Method description: Growth inhibition of human SK-MEL-5 cells measured after 48 hrs by SRB assay
- Type: functional
Note to self: use 1 only for GI50 readings below 0.06 µM; a reading exactly at 0.06 µM still gets -1.

Illustrative cases are given below, each with its answer.
Ask | Consider C[C@]12CC[C@@H](O)C=C1CC[C@@H]1[C@@H]2[C@@H](O)C[C@]2(C)[C@@H](c3ccc(=O)oc3)CC[C@]12O . Does its GI50 lie strictly below 0.06 µM?
Reply | -1

Ask | Consider C[C@]12C[C@H](O)[C@H]3[C@@H](CCC4=C[C@@H](O[C@@H]5O[C@H](CO)[C@@H](O)[C@H](O)[C@H]5O)CC[C@@]43CO)[C@@]1(O)CC[C@@H]2c1ccc(=O)oc1 . Does its GI50 lie strictly below 0.06 µM?
Reply | 1

Ask | Consider C[C@]12CC[C@H]3[C@@H](CC[C@H]4C[C@@H](O)CC[C@@]43C=O)[C@@]1(O)CC[C@@H]2c1ccc(=O)oc1 . Does its GI50 lie strictly below 0.06 µM?
Reply | -1

More entries:
Ask | Consider C[C@]12CC[C@H](O[C@@H]3O[C@H](CO)[C@@H](O)[C@H](O)[C@H]3O)C=C1CC[C@@H]1[C@@H]2[C@@H](O)C[C@]2(C)[C@@H](c3ccc(=O)oc3)CC[C@]12O . Does its GI50 lie strictly below 0.06 µM?
Reply | 1

Ask | Consider CC(=O)OC[C@H]1O[C@@H](O[C@@H]2C=C3CC[C@@H]4[C@H]([C@@H](O)C[C@]5(C)[C@@H](c6ccc(=O)oc6)CC[C@]45O)[C@@]3(C)CC2)[C@H](OC(C)=O)[C@@H](OC(C)=O)[C@@H]1OC(C)=O . Does its GI50 lie strictly below 0.06 µM?
Reply | -1

---

- Tested on: SF-295
- Method description: Growth inhibition of human SF-295 cells measured after 48 hrs by SRB assay
- Format: functional
Attribute: GI50
Your answer should be a plain number; it is taken to be in nM.

Ask | Read the entry CC(=O)OC[C@H]1O[C@@H](O[C@@H]2C=C3CC[C@@H]4[C@H]([C@@H](O)C[C@]5(C)[C@@H](c6ccc(=O)oc6)CC[C@]45O)[C@@]3(C)CC2)[C@H](OC(C)=O)[C@@H](OC(C)=O)[C@@H]1OC(C)=O and write its reported GI50.
Reply | 129

More entries:
Ask | Read the entry C[C@]12CC[C@H](O)C=C1CC[C@@H]1[C@@H]2[C@@H](O)C[C@]2(C)[C@@H](c3ccc(=O)oc3)CC[C@]12O and write its reported GI50.
Reply | 660

Ask | Read the entry CC(=O)OC[C@H]1O[C@@H](O[C@@H]2C=C3CC[C@@H]4[C@H](C(=O)C[C@]5(C)[C@@H](c6ccc(=O)oc6)CC[C@]45O)[C@@]3(C)CC2)[C@H](OC(C)=O)[C@@H](OC(C)=O)[C@@H]1OC(C)=O and write its reported GI50.
Reply | 7350

Ask | Read the entry C[C@]12C[C@H](O)[C@H]3[C@@H](CCC4=C[C@@H](O[C@@H]5O[C@H](CO)[C@@H](O)[C@H](O)[C@H]5O)CC[C@@]43CO)[C@@]1(O)CC[C@@H]2c1ccc(=O)oc1 and write its reported GI50.
Reply | 11

Ask | Read the entry CCO[C@H]1C=C2CC[C@@H]3[C@H]([C@@H](O)C[C@]4(C)[C@@H](c5ccc(=O)oc5)CC[C@]34O)[C@@]2(C)CC1 and write its reported GI50.
Reply | 1200

Ask | Read the entry C[C@]12CC[C@H](O[C@@H]3O[C@H](CO)[C@@H](O)[C@H](O)[C@H]3O)C=C1CC[C@@H]1[C@@H]2[C@@H](O)C[C@]2(C)[C@@H](c3ccc(=O)oc3)CC[C@]12O and write its reported GI50.
Reply | 61

Ask | Read the entry C[C@]12CC[C@@H](O)C=C1CC[C@@H]1[C@@H]2[C@@H](O)C[C@]2(C)[C@@H](c3ccc(=O)oc3)CC[C@]12O and write its reported GI50.
Reply | 1750

Ask | Read the entry C[C@]12CC[C@H]3[C@@H](CC[C@H]4C[C@@H](O)CC[C@@]43C=O)[C@@]1(O)CC[C@@H]2c1ccc(=O)oc1 and write its reported GI50.
Reply | 1980

Ask | Read the entry CCO[C@@H]1C=C2CC[C@@H]3[C@H]([C@@H](O)C[C@]4(C)[C@@H](c5ccc(=O)oc5)CC[C@]34O)[C@@]2(C)CC1 and write its reported GI50.
Reply | 61

---

Attribute: GI50
- System: UACC-257
- Method description: Growth inhibition of human UACC-257 cells measured after 48 hrs by SRB assay
- Format: functional
Your answer should be a plain number; it is taken to be in nM.

Below: 3 molecules and their reported GI50.
Ask | Read the entry CCO[C@@H]1C=C2CC[C@@H]3[C@H]([C@@H](O)C[C@]4(C)[C@@H](c5ccc(=O)oc5)CC[C@]34O)[C@@]2(C)CC1 and write its reported GI50.
Reply | 268

Ask | Read the entry CCO[C@H]1C=C2CC[C@@H]3[C@H]([C@@H](O)C[C@]4(C)[C@@H](c5ccc(=O)oc5)CC[C@]34O)[C@@]2(C)CC1 and write its reported GI50.
Reply | 1890

Ask | Read the entry C[C@]12CC[C@@H](O)C=C1CC[C@@H]1[C@@H]2[C@@H](O)C[C@]2(C)[C@@H](c3ccc(=O)oc3)CC[C@]12O and write its reported GI50.
Reply | 3450

// next item, GI50 requested
Ask | Read the entry C[C@]12CC[C@H]3[C@@H](CC[C@H]4C[C@@H](O)CC[C@@]43C=O)[C@@]1(O)CC[C@@H]2c1ccc(=O)oc1 and write its reported GI50.
Reply | 4500

---

Attribute: GI50
- Tested on: SNB-75
- Method description: Growth inhibition of human SNB-75 cells measured after 48 hrs by SRB assay
- Assay type: functional
Your answer should be a plain number; it is taken to be in nM.

Ask | Read the entry C[C@]12CC[C@H](O[C@@H]3O[C@H](CO)[C@@H](O)[C@H](O)[C@H]3O)C=C1CC[C@@H]1[C@@H]2[C@@H](O)C[C@]2(C)[C@@H](c3ccc(=O)oc3)CC[C@]12O and write its reported GI50.
Reply | 82

Ask | Read the entry C[C@]12CC[C@H](O)C=C1CC[C@@H]1[C@@H]2[C@@H](O)C[C@]2(C)[C@@H](c3ccc(=O)oc3)CC[C@]12O and write its reported GI50.
Reply | 1170

More entries:
Ask | Read the entry C[C@]12C[C@H](O)[C@H]3[C@@H](CCC4=C[C@@H](O[C@@H]5O[C@H](CO)[C@@H](O)[C@H](O)[C@H]5O)CC[C@@]43CO)[C@@]1(O)CC[C@@H]2c1ccc(=O)oc1 and write its reported GI50.
Reply | 23

---

Attribute: GI50
- Test system: HOP-92
- Method description: Growth inhibition of human HOP-92 cells measured after 48 hrs by SRB assay
- Type: functional
Your answer should be a plain number; it is taken to be in nM.

Below: 2 molecules and their reported GI50.
Ask | Read the entry C[C@]12CC[C@H]3[C@@H](CC[C@H]4C[C@@H](O)CC[C@@]43C=O)[C@@]1(O)CC[C@@H]2c1ccc(=O)oc1 and write its reported GI50.
Reply | 3220

Ask | Read the entry C[C@]12CC[C@H](O[C@@H]3O[C@H](CO)[C@@H](O)[C@H](O)[C@H]3O)C=C1CC[C@@H]1[C@@H]2[C@@H](O)C[C@]2(C)[C@@H](c3ccc(=O)oc3)CC[C@]12O and write its reported GI50.
Reply | 66

// next item, GI50 requested
Ask | Read the entry C[C@]12CC[C@@H](O)C=C1CC[C@@H]1[C@@H]2[C@@H](O)C[C@]2(C)[C@@H](c3ccc(=O)oc3)CC[C@]12O and write its reported GI50.
Reply | 2100
